Provenance of the data: PubChem BioAssay (NCI)

Can you tell me growth inhibition for the items I'm about to list?
assay: NCI Yeast Anticancer Drug Screen. Data for the sgs1 mgt1 strain (AID 161);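 further: 0% = growth of cultures given vehicle only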; conditions: S. cerevisiae sgs1 mgt1 strain, at 50.0 µM, active compounds read high
The panel holds about 79,000 compounds, 15% with a hit somewhere; the sample as a whole holds those more often.
Write the number in % without appending the unit.

**Query** Could you share which growth inhibition value was measured for Cc1cc(N)ccc1N=Nc1ccc(Sc2ccc(N=Nc3c(S(=O)(=O)O)cc4cc(S(=O)(=O)O)c(N=Nc5ccc([N+](=O)[O-])cc5)c(N)c4c3O)cc2)cc1 ?
**Result** -32.4

**Query** Could you share which growth inhibition value was measured for N=C(N)c1nc2ccccc2s1 ?
**Result** 17.4

**Query** Could you share which growth inhibition value was measured for COC(=O)c1c(C)cc(C)c(C(C)=O)c1O ?
**Result** 0

**Query** Could you share which growth inhibition value was measured for COC1=CC(=O)N(C)C(O)C1(C#N)OC1OC(CO)C(O)C(O)C1O (stereo unspecified) ?
**Result** -7.5

**Query** Could you share which growth inhibition value was measured for COc1ccc(N=Cc2c(O)ccc3ccccc23)cc1 ?
**Result** 43.1

**Query** Could you share which growth inhibition value was measured for C=CCNC(=S)Nc1cccc(OC(=O)NC2CCCCC2)c1 ?
**Result** 3.75

**Query** Could you share which growth inhibition value was measured for C=CCOC(=O)Nc1ccc(S(=O)(=O)N2CCCCC2)cc1 ?
**Result** 2.95

**Query** Could you share which growth inhibition value was measured for Cn1c(N)c(-n2[nH]c(=O)n(-c3ccccc3)c2=O)c(=O)n(C)c1=O ?
**Result** -3.25

**Query** Could you share which growth inhibition value was measured for CCCCCCC(C)CC(=O)O (stereo unspecified) ?
**Result** 0

**Query** Could you share which growth inhibition value was measured for COC(=O)C#Cc1cccc(OC)c1OC ?
**Result** 22.9

**Query** Could you share which growth inhibition value was measured for CSC(=S)n1nc(C)c(N=Nc2ccccc2[N+](=O)[O-])c1C ?
**Result** 0.15

----------
Can you tell me growth inhibition for the items I'm about to list?
assay: NCI Yeast Anticancer Drug Screen. Data for the bub3 strain (AID 167); conditions: S. cerevisiae bub3 mutant strain, at 50.0 µM, active compounds read high
About 79,000 compounds went through this panel and 15% of them were active in at least one assay; those are over-represented in the sample as a whole.
Write the number in % without appending the unit.

**Query** Could you share which growth inhibition value was measured for CN(C(=O)C12C3C4C5C3C1(C(=O)O)C5C42)C(C)(C)C (stereo not given) ?
**Result** 28.1

**Query** Could you share which growth inhibition value was measured for C/C(=N/N)c1sc(-c2nc(C)c(/C(C)=N\N)s2)nc1C ?
**Result** -18.1

**Query** Could you share which growth inhibition value was measured for CN(C)c1ccc(N=Nc2ccc(S(=O)(=O)O)cc2)cc1.CN(C)c1ccc(N=Nc2ccc(S(=O)(=O)O)cc2)cc1.[NH-]C1CCCCC1[NH-].[Pt+2] ?
**Result** 15.6

**Query** Could you share which growth inhibition value was measured for CCOP(=O)(OCC)C1(O)CC(n2cc(C)c(=O)[nH]c2=O)OC1CO (stereo not given) ?
**Result** -5.05

**Query** Could you share which growth inhibition value was measured for CCNC(=O)OC(C)C(O)c1ccccc1 (stereo not given) ?
**Result** -19.6

**Query** Could you share which growth inhibition value was measured for ICC1OCOC2C(CI)OCOC12 (stereo not given) ?
**Result** 4.75

**Query** Could you share which growth inhibition value was measured for COc1ccc2oc(=S)[nH]c2c1 ?
**Result** -4.45

**Query** Could you share which growth inhibition value was measured for O=C1NCCCCCC1S(=O)c1ccccc1 (stereo not given) ?
**Result** -11.8

**Query** Could you share which growth inhibition value was measured for Cc1cc(OCCCC(=O)O)ccc1Cl ?
**Result** 49.1

**Query** Could you share which growth inhibition value was measured for Nc1cccc(C(F)(F)F)c1N ?
**Result** -13.6

**Query** Could you share which growth inhibition value was measured for CCOC(=O)c1cn(CC)c2c(ccc3cnccc32)c1=O ?
**Result** -11

**Query** Could you share which growth inhibition value was measured for C=CCOc1ccc(S(=O)(=O)c2ccc(OCC=C)cc2)cc1 ?
**Result** 8.2

**Query** Could you share which growth inhibition value was measured for CC1=CC[C@@H](Br)C(C)(C)[C@]12CC[C@]1(C)O[C@@H]1C2 ?
**Result** -23.6

**Query** Could you share which growth inhibition value was measured for [C-]#[N+]C([N+]#[C-])=C(C)OCC ?
**Result** 21.6

**Query** Could you share which growth inhibition value was measured for CC(=O)c1c(C)c(Cl)c(C)c(Cl)c1O ?
**Result** 26.4

**Query** Could you share which growth inhibition value was measured for C=CCN=C(N)SCCN(CCSC(N)=NCC=C)C(N)=O ?
**Result** 4.05

**Query** Could you share which growth inhibition value was measured for CC1(C)Nc2cc3c(cc2-n2cccc21)oc1ccccc13 ?
**Result** 30.4

**Query** Could you share which growth inhibition value was measured for Oc1c(CN2CCOCC2)cc(CN2CCOCC2)cc1CN1CCOCC1 ?
**Result** 6.6

**Query** Could you share which growth inhibition value was measured for COC1=C(OCc2ccccc2)C(=O)OC1C(O)CO (stereo not given) ?
**Result** -7.55

**Query** Could you share which growth inhibition value was measured for CCc1nnc(CC)n1NCCCC(=O)O ?
**Result** 24.9

**Query** Could you share which growth inhibition value was measured for O=C(NC(=O)c1cc2cc(Br)cc(Br)c2oc1=O)Oc1ccccc1 ?
**Result** -2.55

**Query** Could you share which growth inhibition value was measured for COC(=O)c1c(C)cc(C)c(C(C)=O)c1O ?
**Result** 0.75

**Query** Could you share which growth inhibition value was measured for Nn1c(=O)[nH]c2ncn(Cc3ccccc3)c2c1=O ?
**Result** -3

**Query** Could you share which growth inhibition value was measured for CN(C)C(=S)c1cccc2ccccc12 ?
**Result** -27.2

**Query** Could you share which growth inhibition value was measured for Cc1cc(C)c(C2CC(O)C(CO)O2)cc1C (stereo not given) ?
**Result** -3.35

----------
experiment: NCI Yeast Anticancer Drug Screen. Data for the rad50 strain (AID 155);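 further: 0% = growth of vehicle-only cultures of the same strain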; settings: S. cerevisiae rad50 strain growth inhibition; at 50.0 µM; active compounds read high
The panel holds about 79,000 compounds, 15% with a hit somewhere; the sample as a whole holds those more often.
Could you please classify the records by growth inhibition using these ranges: A: < -10%; B: ≥ -10% and < 20%; C: ≥ 20%

**Query** Hello team, could you let me know which band the following compound falls into: Cc1ccc(C(=O)N/N=C/c2ccccc2Cl)cc1
**Result** B

**Query** Hello team, could you let me know which band the following compound falls into: CC(=O)Nc1ccc(-c2nnc(SCC(=O)Nc3ccc(C)cc3)o2)cc1
**Result** A

**Query** Hello team, could you let me know which band the following compound falls into: C=CCN1C(=O)C/C(=C2/CCC(=O)N2CC=C)C1=O
**Result** A

**Query** Hello team, could you let me know which band the following compound falls into: CCC/C=C(/CC)C(=O)OC(=O)/C(=C/CCC)CC
**Result** C

**Query** Hello team, could you let me know which band the following compound falls into: COC(=O)C1(C2CCCCCCC2=O)NC(=S)NC(=O)C1C#N (configuration not stated)
**Result** B

**Query** Hello team, could you let me know which band the following compound falls into: Brc1ccccn1
**Result** C

**Query** Hello team, could you let me know which band the following compound falls into: CSC(=N/N=C(\C)c1ccccn1)SC
**Result** B

**Query** Hello team, could you let me know which band the following compound falls into: O=C(O)CCSC1=CC(=O)C(SCCC(=O)O)=CC1=O
**Result** B

**Query** Hello team, could you let me know which band the following compound falls into: N#CC(=O)Nc1ccc(Cl)c(Cl)c1
**Result** A

**Query** Hello team, could you let me know which band the following compound falls into: CCN(CC)c1ccc(NC(=S)Nc2cccc(C(F)(F)F)c2)c(C)c1
**Result** C

**Query** Hello team, could you let me know which band the following compound falls into: O=[N+]([O-])c1ccc(C[Se]c2ncnc3c2ncn3C2OC(CO)C(O)C2O)cc1 (configuration not stated)
**Result** A

----------
assay: NCI Yeast Anticancer Drug Screen. Data for the cln2 rad14 strain (AID 165);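 further: 0% = growth equal to vehicle treated cultures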; settings: S. cerevisiae cln2 rad14 strain, at 50.0 µM, active compounds read high
Compounds without any hit were thinned out: in the full panel of roughly 79,000, 15% have a hit.
Can you tell me growth inhibition for the items I'm about to list?
Write the number in % without appending the unit.

**Query** Could you share which growth inhibition value was measured for CC(=O)OCC1OC(n2ccc(=O)[nH]c2=O)C(NC(=O)C(F)(F)F)C(OC(C)=O)C1OC(C)=O (stereo not given) ?
**Result** -11.2

**Query** Could you share which growth inhibition value was measured for Cc1ccc2c(c1O)C(=O)c1ccccc1C2=O ?
**Result** -16.9

**Query** Could you share which growth inhibition value was measured for CSC(=S)n1nc(-c2cccs2)c(N=Nc2ccc([N+](=O)[O-])cc2)c1C(F)(F)F ?
**Result** 12.2

**Query** Could you share which growth inhibition value was measured for COCn1c(C(=O)c2ccc(OC)cc2)cc2ccccc21 ?
**Result** -11.5

**Query** Could you share which growth inhibition value was measured for COc1ccc(C2c3cc4c(cc3OC(N3CCOCC3)C2C)OCO4)c(OC)c1OC (stereo not given) ?
**Result** -1.1
